study_system: HLA-B*46:01
test_method_notes: IEDB peptide-MHC binding, purified MHC/direct/fluorescence; filed as Kd, often an IC50 or EC50 that approximates it; bounds were set here for any values at or beyond the usual limits of such assays
measurement_conditions: source organism: Camelpox virus CMS
observed_property: Kd

Data point: RVFDKADGK ; Kd = ≥ 20 µM

---

study_system: HLA-A*02:19
test_method_notes: IEDB peptide-MHC binding, purified MHC/direct/fluorescence; filed as Kd, often an IC50 or EC50 that approximates it; bounds were set here for any values at or beyond the usual limits of such assays
measurement_conditions: source organism: Salmonella enterica subsp. arizonae serovar 62:z4,z23:-
observed_property: Kd

Value sought: Kd, system HLA-A*02:19, item RIYSHIAPY . Result: ≥ 20 µM

---

study_system: HLA-A*01:01
test_method_notes: IEDB peptide-MHC binding, purified MHC/direct/fluorescence; filed as Kd, often an IC50 or EC50 that approximates it; bounds were set here for any values at or beyond the usual limits of such assays
measurement_conditions: source organism: Mycobacterium tuberculosis
This section presents sequences with their documented Kd values.

Solved cases below.
RTRPRWIPA	≥ 20 µM
AVFPRYHPR	≥ 20 µM

Note to self: Kd of PTAIYTLEY with HLA-A*01:01 was 0.0092 µM

---

study_system: HLA-A*02:19
test_method_notes: IEDB peptide-MHC binding, purified MHC/competitive/fluorescence; filed as Kd, often an IC50 or EC50 that approximates it; bounds were set here for any values at or beyond the usual limits of such assays
measurement_conditions: source organism: Mycobacterium tuberculosis variant bovis BCG str. Pasteur 1173P2
observed_property: Kd

Per the records, this sequence ( AEDLADHHV ) has Kd equal to ≥ 20 µM

---

study_system: HLA-B*35:01
test_method_notes: IEDB peptide-MHC binding, purified MHC/competitive/radioactivity; filed as Kd, often an IC50 or EC50 that approximates it; bounds were set here for any values at or beyond the usual limits of such assays
measurement_conditions: source organism: Dengue virus 2 Jamaica/1409/1983
observed_property: pKd
Give only the number. pKd is defined as minus log10 of concentration in molar units.

Sure, the documented pKd for WHYDQDHPY is 5.12

---

study_system: HLA-B*57:01
test_method_notes: IEDB peptide-MHC binding, purified MHC/competitive/fluorescence; filed as Kd, often an IC50 or EC50 that approximates it; bounds were set here for any values at or beyond the usual limits of such assays
measurement_conditions: source organism: Reston ebolavirus
# key: entry, value: Kd

GVPPKVVSY	≥ 20 µM

Just so you know, measured Kd for ALYEENALK came out at ≥ 20 µM

---

study_system: HLA-A*02:02
test_method_notes: IEDB peptide-MHC binding, purified MHC/competitive/radioactivity; filed as Kd, often an IC50 or EC50 that approximates it; bounds were set here for any values at or beyond the usual limits of such assays
measurement_conditions: source organism: Hepacivirus hominis
observed_property: Kd

Recorded result, RDWAHNSL , Kd: ≥ 70 µM

---

study_system: HLA-A*31:01
test_method_notes: IEDB peptide-MHC binding, purified MHC/direct/fluorescence; filed as Kd, often an IC50 or EC50 that approximates it; bounds were set here for any values at or beyond the usual limits of such assays
measurement_conditions: source organism: Mammarenavirus lassaense
pKd: −log10 of the molar value.
observed_property: pKd

pKd reported for this sequence KHDEEFCDM : ≤ 4.70
